All figures here come from PubChem BioAssay (NCI).

Tested on: 786-0 renal
test_details: NCI-60 one-dose screen, 48 h (100 = growth as untreated, 0 = no growth, -100 = all killed)
conditions_used: 10 µM unless noted
The panel holds about 83,000 compounds, 20% with a hit somewhere; the sample as a whole holds those more often.
Checkbox rule: growth lower than 90% = 1; growth not lower than 90% = 0.

{"compound_structure": "O=C1/C(=C\\c2cn(-c3ccccc3)nc2-c2ccc(-c3cccs3)cc2)CCc2ccccc21", "label_value": 1}
{"compound_structure": "CCN(CC)CCNC(=O)c1cn2ncnc(Oc3ccc(NC(=O)Nc4ccc(Cl)c(C(F)(F)F)c4)c(F)c3)c2c1C", "label_value": 1}
{"compound_structure": "O=Cc1ccc([N+](=O)[O-])s1", "label_value": 0}
{"compound_structure": "Cc1ccc(-c2cc(-c3ccc(Cl)cc3)nc(NC(=O)c3cccnc3)n2)cc1", "label_value": 0}
